# Tested on: 1-G12
# assay-notes: icELISA with mAb 1-G12
# Assay type: binding, Balb/c mice
# run-conditions: mAb 1-G12, specific evaluation (Table 1, Fig. 3D)
observed-property: IC50

Example compounds with recorded IC50:
1) COc1cc(C=O)ccc1O [Vanillin] :: >4 µg/mL
2) COc1ccc(/C=C/C(=O)O)cc1O [IsoFerulic acid] :: >4 µg/mL
3) COc1cc(CCC(=O)O)ccc1O :: >4 µg/mL

Q. Could you share which IC50 value was measured for `CCCCCCCC(=O)CCc1cc(OC)c(O)c(C(=O)O)c1` ?
A. >4 µg/mL

Q. Could you share which IC50 value was measured for CCCCC[C@H](O)CC(=O)CCc1ccc(O)c(OC)c1 [Hapten 6-GG, 6-gingerol] ?
A. 0.56059 µg/mL

Q. Could you share which IC50 value was measured for COc1cccc(CNC(=O)CC#N)c1 [2-Cyano-N-(3-methoxybenzyl) acetamide] ?
A. >4 µg/mL

Q. Could you share which IC50 value was measured for COc1cc(C(=O)O)ccc1O [Vanillic acid] ?
A. >4 µg/mL

Q. Could you share which IC50 value was measured for COc1cc(/C=C/C(=O)O)ccc1O [Trans-Ferulic acid] ?
A. >4 µg/mL

Q. Could you share which IC50 value was measured for COc1cc(CNC(=O)CCCCCCC(C)C)ccc1O [DCPC, dihydrocapsaicin] ?
A. 0.70085 µg/mL

Q. Could you share which IC50 value was measured for COc1cc(CNC(=O)CCCC/C=C/C(C)C)ccc1O [CPC, Capsaicin] ?
A. 1.22906 µg/mL
